systemTested: HPK1 protein (Homo sapiens, UniProt Q92918)
Construct: Frozen human PBMC were purchased from Shanghai OribioTech; host or cells: human PBMC
Sequence (Q92918 whole entry): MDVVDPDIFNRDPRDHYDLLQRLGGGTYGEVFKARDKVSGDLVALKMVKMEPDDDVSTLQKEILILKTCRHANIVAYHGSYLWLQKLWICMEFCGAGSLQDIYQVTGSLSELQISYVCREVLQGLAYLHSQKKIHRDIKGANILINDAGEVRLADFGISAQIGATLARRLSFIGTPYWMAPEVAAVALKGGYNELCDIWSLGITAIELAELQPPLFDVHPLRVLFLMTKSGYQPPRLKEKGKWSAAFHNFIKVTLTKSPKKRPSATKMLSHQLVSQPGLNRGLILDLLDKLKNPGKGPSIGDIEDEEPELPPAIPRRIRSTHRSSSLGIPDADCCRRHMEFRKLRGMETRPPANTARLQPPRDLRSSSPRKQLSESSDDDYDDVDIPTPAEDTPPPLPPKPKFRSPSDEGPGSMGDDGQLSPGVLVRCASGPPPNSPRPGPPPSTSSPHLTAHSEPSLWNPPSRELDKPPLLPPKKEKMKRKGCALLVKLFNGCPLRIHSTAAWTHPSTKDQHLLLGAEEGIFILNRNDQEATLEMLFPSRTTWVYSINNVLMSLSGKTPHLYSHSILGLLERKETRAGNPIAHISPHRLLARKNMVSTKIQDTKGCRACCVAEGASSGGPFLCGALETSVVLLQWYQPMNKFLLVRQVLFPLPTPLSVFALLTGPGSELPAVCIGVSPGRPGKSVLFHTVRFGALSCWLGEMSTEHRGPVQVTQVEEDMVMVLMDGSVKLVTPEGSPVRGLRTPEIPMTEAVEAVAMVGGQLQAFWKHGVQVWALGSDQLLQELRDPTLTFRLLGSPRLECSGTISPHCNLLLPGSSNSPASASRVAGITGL
experimentNotes: HPK1 protein degradation in human PBMC (western blot)
Format: cell-based
testConditions: 18 h incubation
propertyName: Dmax (%)

* O=C1CCC(c2ccc(C3CCN(CCCN4CCN(c5cccc(-c6cnc7[nH]cc(C8CC8)c7c6Cl)c5)C(=O)C4)CC3)cc2)C(=O)N1 (stereo not drawn) | 87
* O=C1CCC(N2C(=O)c3cc(F)c(N4CCC(CCN5CCN(c6cccc(-c7cnc8[nH]cc(C9CC9)c8c7Cl)c6)C(=O)C5)CC4)cc3C2=O)C(=O)N1 (stereo not drawn) | 78
* CCc1c[nH]c2ncc(-c3cccc(N4CCN(CC5CCN(c6cc7c(cc6F)C(=O)N(C6CCC(=O)NC6=O)C7=O)CC5)CC4=O)c3)c(Cl)c12 (stereo not drawn) | 30

1 = O=C1CCC(N2C(=O)c3cc(F)c(N4CCN(C5CC(CN6CCN(c7cccc(-c8cnc9[nH]cc(C%10CC%10)c9c8Cl)c7)C(=O)C6)C5)CC4)cc3C2=O)C(=O)N1 (stereo not drawn)
2 = O=C1CCC(N2Cc3ccc(N4CCC(OCC(=O)N5CCN(c6cccc(-c7cnc8[nH]cc(C9CC9)c8c7Cl)c6)C(=O)C5)CC4)cc3C2=O)C(=O)N1 (stereo not drawn)
Req: Quick one: lower Dmax, 1 or 2 ? I would appreciate it if you answered with the label of your choice.
Resp: 2
